assay: Clearance in cynomolgus monkey at 0.1 mg/kg, iv by RP-HPLC analysis; format: ADME, organism-based, Macaca fascicularis; settings: in vivo
ASSAY_READOUT: clearance (mL/min/kg)
# value in mL/min/kg; strip the unit string

What does the record list as clearance for CCC(=O)N1CC[C@H](Nc2ncnc3c2CN(c2cnc(OC)c(C(F)(F)F)c2)CC3)C1 [LENIOLISIB] ?
17

###

target: Phosphatidylinositol 4,5-bisphosphate 3-kinase catalytic subunit gamma isoform (Mus musculus); test: Inhibition of PI3Kgamma in C57/Bl6 mouse BMMC assessed as reduction in adenosine stimulated ATK phosphorylation at ser473 residue pretreated for 30 mins followed by adenosine addition measured after 3 minutes
ASSAY_READOUT: IC50 (µM)
# value in µM; strip the unit string

What does the record list as IC50 for CCC(=O)N1CC[C@H](Nc2ncnc3c2CN(c2cnc(OC)c(C(F)(F)F)c2)CC3)C1 [LENIOLISIB] ?
7.8

###

biological target: Phosphatidylinositol 4,5-bisphosphate 3-kinase catalytic subunit beta isoform (Homo sapiens); experiment: Inhibition of recombinant PI3Kbeta (unknown origin) using phosphatidyl inositol/n-Octyl-glucoside as substrate measured after 60 mins by KinaseGlo assay
Sequence (P42338 whole entry, canonical isoform): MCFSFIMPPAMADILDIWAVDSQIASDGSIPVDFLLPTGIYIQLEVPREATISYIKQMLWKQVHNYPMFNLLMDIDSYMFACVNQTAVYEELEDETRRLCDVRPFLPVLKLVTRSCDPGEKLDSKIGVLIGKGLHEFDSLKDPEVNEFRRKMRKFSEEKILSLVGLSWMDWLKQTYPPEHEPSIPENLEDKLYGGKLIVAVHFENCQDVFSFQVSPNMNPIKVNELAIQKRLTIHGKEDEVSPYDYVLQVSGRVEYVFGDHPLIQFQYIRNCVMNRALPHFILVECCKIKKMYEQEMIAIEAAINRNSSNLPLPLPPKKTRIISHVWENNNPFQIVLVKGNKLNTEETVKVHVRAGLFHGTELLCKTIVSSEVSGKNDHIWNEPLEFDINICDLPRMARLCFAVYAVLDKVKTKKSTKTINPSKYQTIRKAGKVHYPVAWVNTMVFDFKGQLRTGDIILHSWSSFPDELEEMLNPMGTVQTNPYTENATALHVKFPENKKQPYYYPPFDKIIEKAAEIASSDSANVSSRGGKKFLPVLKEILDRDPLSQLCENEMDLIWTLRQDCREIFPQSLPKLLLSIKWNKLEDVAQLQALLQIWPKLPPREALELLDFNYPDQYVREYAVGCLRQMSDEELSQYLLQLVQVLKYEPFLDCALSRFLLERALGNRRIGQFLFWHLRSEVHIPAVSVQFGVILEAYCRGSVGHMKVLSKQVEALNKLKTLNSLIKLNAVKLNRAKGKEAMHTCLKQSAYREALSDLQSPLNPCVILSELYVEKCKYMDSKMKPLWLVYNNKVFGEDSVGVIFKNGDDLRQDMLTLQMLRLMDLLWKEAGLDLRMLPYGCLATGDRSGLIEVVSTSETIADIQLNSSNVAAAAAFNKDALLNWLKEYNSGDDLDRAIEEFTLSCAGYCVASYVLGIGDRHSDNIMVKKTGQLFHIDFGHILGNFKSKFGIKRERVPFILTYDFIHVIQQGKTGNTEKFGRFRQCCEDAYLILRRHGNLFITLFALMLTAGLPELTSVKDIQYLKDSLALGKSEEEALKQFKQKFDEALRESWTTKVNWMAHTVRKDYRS
ASSAY_READOUT: IC50 (nM)
# value in nM; strip the unit string

What does the record list as IC50 for CCC(=O)N1CC[C@H](Nc2ncnc3c2CN(c2cnc(OC)c(C(F)(F)F)c2)CC3)C1 ?
424

What does the record list as IC50 for CCC(=O)N1CC[C@H](Nc2ncnc3c2CN(c2cnc(OC)c(C)c2)CC3)C1 ?
951

Continuing:
What does the record list as IC50 for COc1ncc(N2CCc3ncnc(N[C@H]4CCN(C(=O)C5CCOCC5)C4)c3C2)cc1C(F)(F)F ?
300

What does the record list as IC50 for COc1ncc(N2CCc3ncnc(O[C@H]4CCN(C(=O)C5CCOCC5)C4)c3C2)cc1C(F)(F)F ?
1330

What does the record list as IC50 for COc1ccc(N2CCc3ncnc(-c4cccc(OC5CCN(C(C)=O)CC5)c4)c3C2)cn1 ?
8940

What does the record list as IC50 for CCC(=O)N1CC[C@H](Oc2ncnc3c2CN(c2ccc(OC)nc2)CC3)C1 ?
8940

What does the record list as IC50 for COc1ncc(N2CCc3ncnc(O[C@H]4CCN(C(=O)C5CCOCC5)C4)c3C2)cc1C ?
4150

What does the record list as IC50 for CCC(=O)N1CC[C@H](Oc2ncnc3c2CN(c2cnc(OC)c(C(F)(F)F)c2)CC3)C1 ?
1710

What does the record list as IC50 for COc1ncc(N2CCc3ncnc(N[C@H]4CCN(C(=O)C5CCOCC5)C4)c3C2)cc1C ?
2020

###

experiment: Volume of distribution at steady state in Beagle dog at 0.1 mg/kg, iv by RP-HPLC analysis; format: ADME, organism-based, Canis lupus familiaris; conditions: in vivo, read-out: Vdss
ASSAY_READOUT: Vd (L/kg)
# value in L/kg; strip the unit string

What does the record list as Vd for CCC(=O)N1CC[C@H](Nc2ncnc3c2CN(c2cnc(OC)c(C(F)(F)F)c2)CC3)C1 ?
0.3

###

assay: Clearance in Beagle dog at 0.1 mg/kg, iv by RP-HPLC analysis; type: ADME, organism-based, Canis lupus familiaris; details: in vivo
ASSAY_READOUT: clearance (mL/min/kg)
# value in mL/min/kg; strip the unit string

What does the record list as clearance for CCC(=O)N1CC[C@H](Nc2ncnc3c2CN(c2cnc(OC)c(C(F)(F)F)c2)CC3)C1 [LENIOLISIB] ?
2

###

experiment: Tmax in Sprague-Dawley rat at 3 mg/kg, po by RP-HPLC analysis; type: ADME, organism-based; conditions: in vivo
ASSAY_READOUT: Tmax (min)
# value in min; strip the unit string

What does the record list as Tmax for CCC(=O)N1CC[C@H](Nc2ncnc3c2CN(c2cnc(OC)c(C(F)(F)F)c2)CC3)C1 ?
24

###

assay: Inhibition of PI3Kdelta in 50% rat blood assessed as reduction in anti-IgM stimulated CD86 expression pretreated for 1 hr followed by anti-IgM stimulation after 24 hrs by flow cytometric analysis
This listing pairs molecules with measured pIC50.
Interpret pIC50 as the negative base-10 log of the concentration measured in mol/L.

Use these answered entries as a reference point.
What does the record list as pIC50 for CCC(=O)N1CC[C@H](Nc2ncnc3c2CN(c2cnc(OC)c(C(F)(F)F)c2)CC3)C1 ?
7.00

What does the record list as pIC50 for COc1ncc(N2CCc3ncnc(N[C@H]4CCN(C(=O)C5CCOCC5)C4)c3C2)cc1C ?
7.13

What does the record list as pIC50 for COc1ncc(N2CCc3ncnc(O[C@H]4CCN(C(=O)C5CCOCC5)C4)c3C2)cc1C ?
7.04

What does the record list as pIC50 for CCC(=O)N1CC[C@H](Nc2ncnc3c2CN(c2cnc(OC)c(C)c2)CC3)C1 ?
7.14

What does the record list as pIC50 for COc1ncc(N2CCc3ncnc(O[C@H]4CCN(C(=O)C5CCOCC5)C4)c3C2)cc1C(F)(F)F ?
7.24

Continuing:
What does the record list as pIC50 for COc1ncc(N2CCc3ncnc(N[C@H]4CCN(C(=O)C5CCOCC5)C4)c3C2)cc1C(F)(F)F ?
7.80

###

experiment: Oral bioavailability in Sprague-Dawley rat at 3 mg/kg by RP-HPLC analysis; assay type: ADME, organism-based; details: in vivo
ASSAY_READOUT: bioavailability (%)
# value in %; strip the unit string

What does the record list as bioavailability for CCC(=O)N1CC[C@H](Nc2ncnc3c2CN(c2cnc(OC)c(C(F)(F)F)c2)CC3)C1 ?
86

###

molecular target: Phosphatidylinositol 4,5-bisphosphate 3-kinase catalytic subunit alpha isoform (Homo sapiens); experiment: Inhibition of recombinant human myristoylated PI3Kalpha catalytic domain expressed in Rat1 cells assessed as reduction in Akt phosphorylation at […] residue after 1 hr by alpha screen Surefire assay; format: cell-based
Sequence (P42336 whole entry, the tested form may be a part, canonical isoform): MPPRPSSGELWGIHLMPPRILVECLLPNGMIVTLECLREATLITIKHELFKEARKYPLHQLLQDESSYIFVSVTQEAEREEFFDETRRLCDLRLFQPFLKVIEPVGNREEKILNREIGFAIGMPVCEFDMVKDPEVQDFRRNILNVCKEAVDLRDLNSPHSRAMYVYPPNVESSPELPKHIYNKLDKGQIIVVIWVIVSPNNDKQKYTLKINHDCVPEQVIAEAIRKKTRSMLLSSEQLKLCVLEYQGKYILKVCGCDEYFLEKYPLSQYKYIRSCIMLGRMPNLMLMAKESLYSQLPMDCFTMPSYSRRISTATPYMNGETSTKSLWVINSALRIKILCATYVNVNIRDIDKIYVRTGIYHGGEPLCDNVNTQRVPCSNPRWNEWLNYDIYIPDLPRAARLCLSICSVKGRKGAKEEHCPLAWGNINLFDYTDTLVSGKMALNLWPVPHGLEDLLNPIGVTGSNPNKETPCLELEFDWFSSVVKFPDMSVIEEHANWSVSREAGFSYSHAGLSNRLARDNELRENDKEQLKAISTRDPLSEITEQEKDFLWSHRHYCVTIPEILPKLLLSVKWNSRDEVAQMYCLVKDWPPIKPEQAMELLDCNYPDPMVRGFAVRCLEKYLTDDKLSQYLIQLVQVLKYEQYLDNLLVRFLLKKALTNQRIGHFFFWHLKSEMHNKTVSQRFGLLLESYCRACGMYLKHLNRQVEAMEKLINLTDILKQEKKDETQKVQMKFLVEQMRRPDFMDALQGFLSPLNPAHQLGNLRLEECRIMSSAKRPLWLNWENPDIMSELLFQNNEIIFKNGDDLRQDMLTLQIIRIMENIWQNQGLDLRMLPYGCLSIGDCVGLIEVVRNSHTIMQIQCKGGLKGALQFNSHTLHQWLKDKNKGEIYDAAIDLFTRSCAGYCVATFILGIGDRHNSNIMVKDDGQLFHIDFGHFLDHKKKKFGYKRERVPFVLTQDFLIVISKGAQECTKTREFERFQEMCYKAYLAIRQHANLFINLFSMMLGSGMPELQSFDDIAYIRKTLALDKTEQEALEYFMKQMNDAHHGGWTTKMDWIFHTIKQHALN
This listing pairs compounds with measured IC50.

Use these answered entries as a reference point.
What does the record list as IC50 for COc1ccc(N2CCc3ncnc(-c4cccc(OC5CCN(C(C)=O)CC5)c4)c3C2)cn1 ?
9.03 µM

What does the record list as IC50 for COc1ncc(N2CCc3ncnc(O[C@H]4CCN(C(=O)C5CCOCC5)C4)c3C2)cc1C(F)(F)F ?
3.55 µM

What does the record list as IC50 for CCC(=O)N1CC[C@H](Nc2ncnc3c2CN(c2cnc(OC)c(C(F)(F)F)c2)CC3)C1 ?
1.67 µM

What does the record list as IC50 for COc1ncc(N2CCc3ncnc(N[C@H]4CCN(C(=O)C5CCOCC5)C4)c3C2)cc1C(F)(F)F ?
2.15 µM

What does the record list as IC50 for CCC(=O)N1CC[C@H](Oc2ncnc3c2CN(c2cnc(OC)c(C(F)(F)F)c2)CC3)C1 ?
2.6 µM

Continuing:
What does the record list as IC50 for CCC(=O)N1CC[C@H](Oc2ncnc3c2CN(c2ccc(OC)nc2)CC3)C1 ?
> 10 µM

What does the record list as IC50 for COc1ccc(N2CCc3ncnc(-c4cccc(C(=O)N5CCN(C(C)=O)CC5)c4)c3C2)cn1 ?
> 10 µM

What does the record list as IC50 for CCC(=O)N1CC[C@H](Nc2ncnc3c2CN(c2cnc(OC)c(C)c2)CC3)C1 ?
7.41 µM

###

biological target: 3',5'-cyclic-AMP phosphodiesterase 4D (Homo sapiens); assay: Inhibition of recombinant human PDE4D
Sequence (Q08499 whole entry): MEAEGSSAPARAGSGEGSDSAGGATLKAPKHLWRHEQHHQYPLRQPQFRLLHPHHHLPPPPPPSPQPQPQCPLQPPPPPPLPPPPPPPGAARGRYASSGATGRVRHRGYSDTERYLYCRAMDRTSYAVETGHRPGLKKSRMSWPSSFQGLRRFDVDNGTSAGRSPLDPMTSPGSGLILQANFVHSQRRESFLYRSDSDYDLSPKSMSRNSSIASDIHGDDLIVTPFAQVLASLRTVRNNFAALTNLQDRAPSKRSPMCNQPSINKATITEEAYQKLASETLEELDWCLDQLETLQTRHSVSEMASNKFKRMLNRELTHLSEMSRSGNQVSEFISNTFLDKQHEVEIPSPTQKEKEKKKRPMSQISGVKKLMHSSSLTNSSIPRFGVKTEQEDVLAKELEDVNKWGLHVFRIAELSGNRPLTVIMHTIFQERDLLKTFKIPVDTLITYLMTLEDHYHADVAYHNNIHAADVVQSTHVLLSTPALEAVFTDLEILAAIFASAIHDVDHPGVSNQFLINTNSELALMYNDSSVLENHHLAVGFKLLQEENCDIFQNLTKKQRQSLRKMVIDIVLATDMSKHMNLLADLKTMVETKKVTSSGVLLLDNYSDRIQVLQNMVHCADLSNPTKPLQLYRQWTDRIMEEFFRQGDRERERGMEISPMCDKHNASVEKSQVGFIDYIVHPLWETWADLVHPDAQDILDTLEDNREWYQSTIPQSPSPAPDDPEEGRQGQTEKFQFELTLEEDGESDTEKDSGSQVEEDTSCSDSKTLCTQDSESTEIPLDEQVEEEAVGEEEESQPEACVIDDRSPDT
ASSAY_READOUT: IC50
Answer with the value and then the unit.

What does the record list as IC50 for CCC(=O)N1CC[C@H](Nc2ncnc3c2CN(c2cnc(OC)c(C(F)(F)F)c2)CC3)C1 [LENIOLISIB] ?
4.7 µM

###

target: Phosphatidylinositol 4,5-bisphosphate 3-kinase catalytic subunit gamma isoform (Homo sapiens); test: Inhibition of PI3Kgamma in human U937 cells assessed as reduction in MIP-1 alpha stimulated ATK phosphorylation at ser473 residue pretreated for 30 mins followed by MIP-1 alpha addition measured after 3 mins by fluorescence assay; format: cell-based
Sequence (P48736 whole entry, canonical isoform): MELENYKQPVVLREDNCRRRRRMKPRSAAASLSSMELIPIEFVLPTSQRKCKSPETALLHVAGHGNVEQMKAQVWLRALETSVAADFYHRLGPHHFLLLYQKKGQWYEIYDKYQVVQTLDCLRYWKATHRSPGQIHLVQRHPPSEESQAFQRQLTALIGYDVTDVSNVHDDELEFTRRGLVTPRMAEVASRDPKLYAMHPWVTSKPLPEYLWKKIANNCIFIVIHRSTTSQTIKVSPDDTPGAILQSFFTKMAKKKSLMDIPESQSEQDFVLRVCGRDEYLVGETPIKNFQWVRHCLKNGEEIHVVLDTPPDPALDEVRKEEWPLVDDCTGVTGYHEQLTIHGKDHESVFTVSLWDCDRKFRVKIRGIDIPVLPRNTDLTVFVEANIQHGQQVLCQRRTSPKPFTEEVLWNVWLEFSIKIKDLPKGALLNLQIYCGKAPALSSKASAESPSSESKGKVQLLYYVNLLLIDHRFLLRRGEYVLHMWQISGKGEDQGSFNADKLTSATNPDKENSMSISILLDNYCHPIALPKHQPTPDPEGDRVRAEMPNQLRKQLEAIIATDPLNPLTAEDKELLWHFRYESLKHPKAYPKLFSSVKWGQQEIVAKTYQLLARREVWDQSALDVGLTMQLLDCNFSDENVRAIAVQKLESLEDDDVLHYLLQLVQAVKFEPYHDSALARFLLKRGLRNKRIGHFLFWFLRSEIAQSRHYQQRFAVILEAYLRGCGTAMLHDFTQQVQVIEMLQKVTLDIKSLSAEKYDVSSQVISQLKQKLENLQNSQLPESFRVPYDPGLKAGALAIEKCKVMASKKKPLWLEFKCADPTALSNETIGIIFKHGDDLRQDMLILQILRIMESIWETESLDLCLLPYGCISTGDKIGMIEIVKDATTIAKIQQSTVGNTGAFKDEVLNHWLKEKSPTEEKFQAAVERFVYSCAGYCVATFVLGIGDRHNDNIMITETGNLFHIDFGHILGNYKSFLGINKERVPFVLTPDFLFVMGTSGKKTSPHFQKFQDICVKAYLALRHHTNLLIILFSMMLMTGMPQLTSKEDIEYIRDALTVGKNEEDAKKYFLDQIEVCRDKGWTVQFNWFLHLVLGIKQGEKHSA
ASSAY_READOUT: IC50

What does the record list as IC50 for CCC(=O)N1CC[C@H](Nc2ncnc3c2CN(c2cnc(OC)c(C(F)(F)F)c2)CC3)C1 [LENIOLISIB] ?
> 7.4 µM

###

target: Phosphatidylinositol 3-kinase catalytic subunit type 3 (Homo sapiens); assay: Inhibition of Vps34 (unknown origin) using phosphatidyl inositol/n-Octyl-glucoside as substrate measured after 30 mins by KinaseGlo assay
Sequence (Q8NEB9 whole entry): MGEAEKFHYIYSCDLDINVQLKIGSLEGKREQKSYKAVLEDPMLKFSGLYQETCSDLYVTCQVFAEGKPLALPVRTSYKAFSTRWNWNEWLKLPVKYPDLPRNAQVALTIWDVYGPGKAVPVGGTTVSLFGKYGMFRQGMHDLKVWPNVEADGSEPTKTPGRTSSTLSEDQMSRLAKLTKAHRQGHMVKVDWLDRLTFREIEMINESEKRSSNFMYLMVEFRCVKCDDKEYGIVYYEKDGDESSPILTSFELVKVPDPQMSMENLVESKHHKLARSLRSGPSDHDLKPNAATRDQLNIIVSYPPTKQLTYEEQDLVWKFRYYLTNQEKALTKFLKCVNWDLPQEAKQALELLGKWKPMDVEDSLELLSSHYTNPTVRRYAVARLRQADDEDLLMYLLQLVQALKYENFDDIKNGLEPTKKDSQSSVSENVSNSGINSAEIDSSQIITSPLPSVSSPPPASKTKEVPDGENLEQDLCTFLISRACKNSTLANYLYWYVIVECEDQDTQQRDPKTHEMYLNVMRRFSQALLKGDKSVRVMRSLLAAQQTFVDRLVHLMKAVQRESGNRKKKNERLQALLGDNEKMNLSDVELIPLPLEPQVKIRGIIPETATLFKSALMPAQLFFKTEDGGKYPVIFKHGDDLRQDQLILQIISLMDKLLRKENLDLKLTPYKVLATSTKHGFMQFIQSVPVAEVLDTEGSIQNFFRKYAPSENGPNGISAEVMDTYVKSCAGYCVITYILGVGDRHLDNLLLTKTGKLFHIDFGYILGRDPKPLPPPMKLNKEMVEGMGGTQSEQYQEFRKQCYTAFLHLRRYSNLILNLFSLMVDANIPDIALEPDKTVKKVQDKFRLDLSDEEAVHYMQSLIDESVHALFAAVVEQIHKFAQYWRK
pIC50: −log10 of the molar value.
ASSAY_READOUT: pIC50

What does the record list as pIC50 for CCC(=O)N1CC[C@H](Nc2ncnc3c2CN(c2cnc(OC)c(C(F)(F)F)c2)CC3)C1 ?
< 5.04

###

assay: Clearance in Sprague-Dawley rat at 1 mg/kg, iv by RP-HPLC analysis; assay type: ADME, organism-based; conditions: in vivo
ASSAY_READOUT: clearance (mL/min/kg)
# value in mL/min/kg; strip the unit string

What does the record list as clearance for CCC(=O)N1CC[C@H](Nc2ncnc3c2CN(c2cnc(OC)c(C(F)(F)F)c2)CC3)C1 [LENIOLISIB] ?
28
